experiment: Comparative rat PK study, oral capsules; type: in vivo; conditions: rat, plasma, male Wistar rats, 24 mg/kg, read-out: Relative bioavailability compared to commercial formulation
MEASURED ENDPOINT: bioavailability (%)

[[record]]
compound = "N#Cc1ccnc(N2C(=O)CC[C@H]2C(=O)N(c2cncc(F)c2)[C@H](C(=O)NC2CC(F)(F)C2)c2ccccc2Cl)c1 [Glutaric acid cocrystal of Compound 1]"
uom = "%"
quantitative_result = 61

